Examples of molecules with documented growth inhibition follow.
test: NCI Yeast Anticancer Drug Screen. Data for the cln2 rad14 strain (AID 165);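 further: 0% = growth equal to vehicle treated cultures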
measurementSetup: S. cerevisiae cln2 rad14 strain, at 50.0 µM, stronger effect = higher value
The panel holds about 79,000 compounds, 15% with a hit somewhere; the sample as a whole holds those more often.
Reply numerically in %, unit not repeated.

See these solved cases before continuing.
CCOC(=O)CC(=O)c1cc(OC)c(OC)c(OC)c1; -75
O=S1(=O)c2ccccc2NC(c2ccc3ccccc3c2)CC1c1ccccc1F (configuration not stated); 4.95
CCCCCCCCCOc1ccc2ccccc2c1; -17.9
CCOC(=O)NNC(C)(C)C; 21.8
OCC(CCl)(CCl)CCl; 7.45

## Task Give its growth inhibition value. Item: O=[N+]([O-])c1ccc2c(c1)C(O)c1ccccc1-2 (configuration not stated)
## Result 26.9

## Task Give its growth inhibition value. Item: CC1CCC(C(C)C)C(OS(=O)(=O)c2ccccc2)C1 (configuration not stated)
## Result 17.3

---

Examples of compounds with documented growth inhibition follow.
test: NCI Yeast Anticancer Drug Screen. Data for the cln2 rad14 strain (AID 165);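 further: 0% = growth equal to vehicle treated cultures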
measurementSetup: S. cerevisiae cln2 rad14 strain, at 50.0 µM, stronger effect = higher value
Compounds without any hit were thinned out: in the full panel of roughly 79,000, 15% have a hit.
Reply numerically in %, unit not repeated.

O=[N+]([O-])c1ccc(N/N=C/C2CC=CCC2)c([N+](=O)[O-])c1 (stereo not drawn); -13.1

## Task Give its growth inhibition value. Item: `O=C(COc1ccc(F)cc1)OCCO`
## Result -33.2

---

test: NCI Yeast Anticancer Drug Screen. Data for the mec2-1 strain (AID 157)
measurementSetup: S. cerevisiae mec2-1 strain, at 50.0 µM, stronger effect = higher value
About 79,000 compounds went through this panel and 15% of them were active in at least one assay; those are over-represented in the sample as a whole.
measureName: growth inhibition (%)
Reply numerically in %, unit not repeated.

See these solved cases before continuing.
CCCCCN(CCCCC)C(=O)C(C)C; 7.8
COCCCCCOC; -14.8
N#CC1=C(O)/C(=C\C=C\c2ccccc2)N(C(=O)c2ccccc2)C1=N; -7.6
COc1ccc2c(c1)[n+]([O-])c(/C(C)=N/NC(N)=S)c(C)[n+]2[O-]; 12.2
O=C(Cl)C=Cc1ccc([N+](=O)[O-])cc1 (mixture of isomers); 6.7

## Task Give its growth inhibition value. Item: `Cc1ccc(S(=O)(=O)/N=C2\CCN(S(=O)(=O)c3ccccc3)N2S(=O)(=O)c2ccc(C)cc2)cc1`
## Result 15.5

## Task Give its growth inhibition value. Item: CCC(/C(=N/NC(=O)C[N+](C)(C)C)c1ccccc1)C1OC(=O)c2ccccc21 (stereo not given)
## Result 2.15

## Task Give its growth inhibition value. Item: COc1ccc(CCC(O)c2ccccc2)cc1 (stereo not given)
## Result 20.4

## Task Give its growth inhibition value. Item: `CCCCOB(OCCCC)Oc1c(C(C)(C)C)cc(C)cc1C(C)(C)C`
## Result -14.2

## Task Give its growth inhibition value. Item: CC(C)(C)[Si](C)(C)OCCC1CC2(S(=O)(=O)C3=CC=C=C=C3)ON1CC2S(=O)(=O)c1ccccc1 (stereo not given)
## Result -6.2

---

test: NCI Yeast Anticancer Drug Screen. Data for the bub3 strain (AID 167)
measurementSetup: S. cerevisiae bub3 mutant strain, at 50.0 µM, stronger effect = higher value
This is part of a sample that, as a whole, favours compounds with a hit. Of some 79,000 tested, about 15% had one in any assay.
Examples of compounds with documented growth inhibition follow.
Reply numerically in %, unit not repeated.

See these solved cases before continuing.
CCCCCCCCCCCCCCC(CCCCCCCCCCCCCC)c1ccccc1; -2.65
CCCCCCCCCCCCCCCC(=O)Oc1ccc(/C(CC)=C(/CC)c2ccc(OC(=O)CCCCCCCCCCCCCCC)cc2)cc1; 8.65
C[Si](C)(C)COC(N)=O; 9.4
COc1ccc(CCN=C(c2ccccc2)c2ccccc2)cc1OC; 10.3
CC1(C)CNC(=O)C2(C=NC(C)(C)CNC(=O)C3(C=N1)CCCO3)CCCO2 (stereo unspecified); -17.6

Here's the next entry for you.
## Task Give its growth inhibition value. Item: `CCOC(=O)c1c(NCCO)c(-c2ccccc2)c(=O)n2c1[nH]c1ccccc12`
## Result -0.9

---

Examples of compounds with documented growth inhibition follow.
test: NCI Yeast Anticancer Drug Screen. Data for the cln2 rad14 strain (AID 165);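 further: 0% = growth equal to vehicle treated cultures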
measurementSetup: S. cerevisiae cln2 rad14 strain, at 50.0 µM, stronger effect = higher value
Compounds without any hit were thinned out: in the full panel of roughly 79,000, 15% have a hit.
Reply numerically in %, unit not repeated.

See these solved cases before continuing.
Nc1cccc(CNC(=O)COc2ccc(Cl)c(Cl)c2)c1; 77.2
CC(O)c1ccc(C(O)/C(=N\NC(=O)c2ccncc2)c2nc3ccc([N+](=O)[O-])cc3[nH]c2=O)cc1 (configuration not stated); -60.7
CCC1C(=O)Nc2ccccc21 (configuration not stated); 7.85

## Task Give its growth inhibition value. Item: `C/C(=C/C(=O)O)c1ccccc1`
## Result -19.6

## Task Give its growth inhibition value. Item: `FC(F)(F)c1nc(Cl)c2cn[nH]c2n1`
## Result -16.9

## Task Give its growth inhibition value. Item: `CCCNC(=O)Nc1ccc(OCC)cc1`
## Result -36.8

## Task Give its growth inhibition value. Item: `N#Cc1c(F)cccc1N1CCSCC1`
## Result 25.4

## Task Give its growth inhibition value. Item: `CN1Cc2cc3c(cc2-c2ccccc21)OCO3`
## Result 6.4

## Task Give its growth inhibition value. Item: CC(C(=O)O)C(Nc1ncnc2c1ncn2C1OC(CO)C(O)C1O)C(=O)O (configuration not stated)
## Result -2.1

## Task Give its growth inhibition value. Item: `CCc1ccccc1NC(=O)CCl`
## Result 17.6

## Task Give its growth inhibition value. Item: COC1/C=C/OC2(C)Oc3c(C)c(O)c4c(O)c(c5c(nc(-c6ccco6)n5-c5ccccc5)c4c3C2=O)NC(=O)/C(C)=C\C=C\C(C)C(O)C(C)C(O)C(C)C(OC(C)=O)C1C (configuration not stated)
## Result 14.2

## Task Give its growth inhibition value. Item: `NC(=O)COc1ccccc1`
## Result 14.6

---

test: NCI Yeast Anticancer Drug Screen. Data for the mec2-1 strain (AID 157)
measurementSetup: S. cerevisiae mec2-1 strain, at 50.0 µM, stronger effect = higher value
About 79,000 compounds went through this panel and 15% of them were active in at least one assay; those are over-represented in the sample as a whole.
measureName: growth inhibition (%)
Reply numerically in %, unit not repeated.

CCc1ccc(N=Cc2cc(OC)c(OC)c(OC)c2)cc1; 16.4

## Task Give its growth inhibition value. Item: `CC(=O)n1cc2cc([N+](=O)[O-])ccc2n1`
## Result -13.6

## Task Give its growth inhibition value. Item: `CC(C)(C)OC(=O)Cc1c[nH]c2ccccc12`
## Result -27.1

## Task Give its growth inhibition value. Item: COC1/C=C/OC2(C)Oc3c(C)c(O)c4c(O)c(c5c(nc(-c6ccco6)n5-c5ccccc5)c4c3C2=O)NC(=O)/C(C)=C\C=C\C(C)C(O)C(C)C(O)C(C)C(OC(C)=O)C1C (stereo not drawn)
## Result -13.8

## Task Give its growth inhibition value. Item: `c1ccc(-c2ccccc2NC2=NCCO2)cc1`
## Result -2.8

## Task Give its growth inhibition value. Item: `O=[N+]([O-])c1ccc(OCc2ccccc2)c(Cl)c1`
## Result 17.1

---

test: NCI Yeast Anticancer Drug Screen. Data for the mec2-1 strain (AID 157)
measurementSetup: S. cerevisiae mec2-1 strain, at 50.0 µM, stronger effect = higher value
Protocol: Growth inhibition of yeast strains with defined genetic alterations is measured as a screen for potential anti-cancer activity. Selected strains with alterations in DNA damage repair or cell cycle control were exposed to compounds and growth inhibition was measured relative to vehicle treated controls. The strain used in this assay is mec2-1
The panel holds about 79,000 compounds, 15% with a hit somewhere; the sample as a whole holds those more often.
measureName: growth inhibition (%)
Reply numerically in %, unit not repeated.

O=C(Nc1ccc(Cl)cc1[N+](=O)[O-])Oc1ccc(C(=O)OCc2ccccc2)cc1; 75.1
COc1cc(OC)c2nc3ccccc3c(NCCC[N+](C)(C)[O-])c2c1[N+](=O)[O-]; -33.6
CC(C)(C)C(OC(=O)Cc1ccccc1)c1ccc2c(c1)OCO2 (centres undefined); -2.7
CC1=C(c2ccccc2)OS(=O)(=O)CC1N(C)C (centres undefined); -16.4
O=C(NNC1=NCCCN1)c1ccco1; -0.75

## Task Give its growth inhibition value. Item: NC(=O)c1ncn(C2OC(CO)C(O)C2O)c1C(N)=O (centres undefined)
## Result -24.8

## Task Give its growth inhibition value. Item: `CCCCCCCCCCCC(=O)N(C)CCS(=O)(=O)O`
## Result -28.8

## Task Give its growth inhibition value. Item: `CC(C)(C)N(O)c1ccc(P(=O)(c2ccccc2)c2ccccc2)cc1`
## Result 15.4

## Task Give its growth inhibition value. Item: `CCN(CC)CCN(CC)CC(=O)Nc1ccccc1Cl`
## Result -29.9

## Task Give its growth inhibition value. Item: `O=C(O)COc1ccc(C(=O)O)cc1`
## Result -19.9
